- targetUnderTest: Dihydrofolate reductase (Staphylococcus aureus, UniProt P0A017, F99Y)
- protocolDescription: Inhibition of trimethoprim-resistant Staphylococcus aureus DfrB type dihydrofolate reductase F98Y mutant
pIC50: −log10 of the molar value.
Entries annotated with measured pIC50
assayMetric: pIC50

compound="COc1ncc(C2c3ccccc3C=NN2C(=O)/C=C/c2cc(Cc3cnc(N)nc3N)cc(OC)c2OC)cn1 (stereo not given)" readoutvalue=7.65
compound=COc1ncc([C@@H]2c3ccccc3C=NN2C(=O)/C=C/c2cc(Cc3cnc(N)nc3N)cc(OC)c2OC)cn1 readoutvalue=5.94
compound=COc1cc(Cc2cnc(N)nc2N)cc(/C=C/C(=O)N2N=Cc3ccccc3[C@H]2c2cnc(N3CCOCC3)nc2)c1OC readoutvalue=5.24
compound="COc1cc(Cc2cnc(N)nc2N)cc(/C=C/C(=O)N2N=Cc3ccccc3C2c2cnc(N(C)C)nc2)c1OC (stereo not given)" readoutvalue=7.15
compound=COc1cc(Cc2cnc(N)nc2N)cc(/C=C/C(=O)N2N=Cc3ccccc3[C@@H]2c2cnc(N(C)C)nc2)c1OC readoutvalue=7.39

----------
- Test system: Staphylococcus aureus
- protocolDescription: Antibacterial activity against trimethoprim-resistant Staphylococcus aureus BAS003908
- Type: functional
assayMetric: MIC

compound="COc1cc(Cc2cnc(N)nc2N)cc(/C=C/C(=O)N2N=Cc3ccccc3C2c2cnc(N3CCOCC3)nc2)c1OC (centres undefined)" targetundertest="Staphylococcus aureus" readoutvalue="1 µg/mL"
compound="COc1cc(Cc2cnc(N)nc2N)cc(/C=C/C(=O)N2N=Cc3ccccc3C2c2cnc(N(C)C)nc2)c1OC (centres undefined)" targetundertest="Staphylococcus aureus" readoutvalue="1 µg/mL"
compound=COc1cc(Cc2cnc(N)nc2N)cc(OC)c1OC targetundertest="Staphylococcus aureus" readoutvalue="> 128 µg/mL"
compound="COc1ncc(C2c3ccccc3C=NN2C(=O)/C=C/c2cc(Cc3cnc(N)nc3N)cc(OC)c2OC)cn1 (centres undefined)" targetundertest="Staphylococcus aureus" readoutvalue="0.5 µg/mL"

----------
- System: Staphylococcus epidermidis
- protocolDescription: Antibacterial activity against methicillin-sensitive dfrC-positive and dfrA, dfrD-negative Staphylococcus epidermidis
- Assay type: functional
Examples of molecules with documented MIC follow.
assayMetric: MIC

molecule="COc1ncc(C2c3ccccc3C=NN2C(=O)/C=C/c2cc(Cc3cnc(N)nc3N)cc(OC)c2OC)cn1 (centres undefined)" targetundertest="Staphylococcus epidermidis" readoutvalue="≤ 0.25 µg/mL"
molecule="COc1cc(Cc2cnc(N)nc2N)cc(/C=C/C(=O)N2N=Cc3ccccc3C2c2cnc(N(C)C)nc2)c1OC (centres undefined)" targetundertest="Staphylococcus epidermidis" readoutvalue="< 0.25 µg/mL"
molecule="COc1cc(Cc2cnc(N)nc2N)cc(/C=C/C(=O)N2N=Cc3ccccc3C2c2cnc(N3CCOCC3)nc2)c1OC (centres undefined)" targetundertest="Staphylococcus epidermidis" readoutvalue="< 0.25 µg/mL"
molecule=COc1cc(Cc2cnc(N)nc2N)cc(OC)c1OC targetundertest="Staphylococcus epidermidis" readoutvalue="≤ 0.25 µg/mL"

----------
- targetUnderTest: Dihydrofolate reductase (Staphylococcus aureus, UniProt P0A017, F99Y)
- protocolDescription: Inhibition of trimethoprim-resistant Staphylococcus aureus DfrB type dihydrofolate reductase F98Y mutant
assayMetric: IC50 (nM)

compound=COc1cc(Cc2cnc(N)nc2N)cc(/C=C/C(=O)N2N=Cc3ccccc3[C@H]2c2cnc(N(C)C)nc2)c1OC assaymetric=IC50 readoutvalue=2920
compound=COc1ncc([C@H]2c3ccccc3C=NN2C(=O)/C=C/c2cc(Cc3cnc(N)nc3N)cc(OC)c2OC)cn1 assaymetric=IC50 readoutvalue=13.5
compound=COc1cc(Cc2cnc(N)nc2N)cc(/C=C/C(=O)N2N=Cc3ccccc3[C@@H]2c2cnc(N3CCOCC3)nc2)c1OC assaymetric=IC50 readoutvalue=64.4
compound="COc1cc(Cc2cnc(N)nc2N)cc(/C=C/C(=O)N2N=Cc3ccccc3C2c2cnc(N3CCOCC3)nc2)c1OC (centres undefined)" assaymetric=IC50 readoutvalue=124

----------
- Test system: Enterococcus faecium
- protocolDescription: Antibacterial activity against vancomycin-sensitive dfrE, dfrF-negative and folA-positive Enterococcus faecium
- Format: functional
# maps each entry to its MIC
assayMetric: MIC

compound="COc1cc(Cc2cnc(N)nc2N)cc(/C=C/C(=O)N2N=Cc3ccccc3C2c2cnc(N3CCOCC3)nc2)c1OC (centres undefined)" assaymetric=MIC readoutvalue="≤ 0.25 µg/mL"
compound="COc1cc(Cc2cnc(N)nc2N)cc(/C=C/C(=O)N2N=Cc3ccccc3C2c2cnc(N(C)C)nc2)c1OC (centres undefined)" assaymetric=MIC readoutvalue="≤ 0.25 µg/mL"
compound="COc1ncc(C2c3ccccc3C=NN2C(=O)/C=C/c2cc(Cc3cnc(N)nc3N)cc(OC)c2OC)cn1 (centres undefined)" assaymetric=MIC readoutvalue="≤ 0.25 µg/mL"
compound=COc1cc(Cc2cnc(N)nc2N)cc(OC)c1OC assaymetric=MIC readoutvalue="0.5 µg/mL"

----------
- Test system: Staphylococcus aureus
- protocolDescription: Antibacterial activity against methicillin, vancomycin, trimethoprim-sensitive Staphylococcus aureus ATCC 29213 harboring dfrB gene
- Format: functional
Note to self: use yes only for MIC readings below 0.5 µg/mL; a reading exactly at 0.5 µg/mL still gets no.

molecule=COc1cc(Cc2cnc(N)nc2N)cc(/C=C/C(=O)N2N=Cc3ccccc3[C@H]2c2cnc(N3CCOCC3)nc2)c1OC classlabel=no
molecule="COc1cc(Cc2cnc(N)nc2N)cc(/C=C/C(=O)N2N=Cc3ccccc3C2c2cnc(N3CCOCC3)nc2)c1OC (stereo unspecified)" classlabel=no
molecule=COc1ncc([C@@H]2c3ccccc3C=NN2C(=O)/C=C/c2cc(Cc3cnc(N)nc3N)cc(OC)c2OC)cn1 classlabel=no
molecule=COc1ncc([C@H]2c3ccccc3C=NN2C(=O)/C=C/c2cc(Cc3cnc(N)nc3N)cc(OC)c2OC)cn1 classlabel=yes

----------
Below is a list of entries, each paired with its recorded MIC value.
- Test system: Staphylococcus aureus
- protocolDescription: Antibacterial activity against methicillin-resistant dfrB, dfrG-positive and dfrA-negative Staphylococcus aureus
- Type: functional
assayMetric: MIC (µg/mL)

compound=COc1cc(Cc2cnc(N)nc2N)cc(OC)c1OC targetundertest="Staphylococcus aureus" unitslabel=µg/mL boundoperator=> readoutvalue=128
compound="COc1cc(Cc2cnc(N)nc2N)cc(/C=C/C(=O)N2N=Cc3ccccc3C2c2cnc(N3CCOCC3)nc2)c1OC (centres undefined)" targetundertest="Staphylococcus aureus" unitslabel=µg/mL boundoperator== readoutvalue=64
compound="COc1ncc(C2c3ccccc3C=NN2C(=O)/C=C/c2cc(Cc3cnc(N)nc3N)cc(OC)c2OC)cn1 (centres undefined)" targetundertest="Staphylococcus aureus" unitslabel=µg/mL boundoperator== readoutvalue=32
compound="COc1cc(Cc2cnc(N)nc2N)cc(/C=C/C(=O)N2N=Cc3ccccc3C2c2cnc(N(C)C)nc2)c1OC (centres undefined)" targetundertest="Staphylococcus aureus" unitslabel=µg/mL boundoperator== readoutvalue=64

----------
- Tested on: Staphylococcus aureus
- protocolDescription: Antibacterial activity against methicillin, vancomycin, trimethoprim-sensitive Staphylococcus aureus ATCC 29213 harboring dfrB gene
- Type: functional
assayMetric: MIC (µg/mL)

compound=COc1cc(Cc2cnc(N)nc2N)cc(/C=C/C(=O)N2N=Cc3ccccc3[C@@H]2c2cnc(N3CCOCC3)nc2)c1OC unitslabel=µg/mL readoutvalue=1
compound="COc1cc(Cc2cnc(N)nc2N)cc(/C=C/C(=O)N2N=Cc3ccccc3C2c2cnc(N(C)C)nc2)c1OC (centres undefined)" unitslabel=µg/mL readoutvalue=0.5
compound=COc1cc(Cc2cnc(N)nc2N)cc(OC)c1OC unitslabel=µg/mL readoutvalue=1
compound=COc1cc(Cc2cnc(N)nc2N)cc(/C=C/C(=O)N2N=Cc3ccccc3[C@H]2c2cnc(N(C)C)nc2)c1OC unitslabel=µg/mL readoutvalue=2

----------
- protocolDescription: Tmax in NMRI mouse blood at 25 mg/kg administered through oral gavage measured after 7 hrs
- Assay type: ADME, organism-based
- Parameters: dose 25 mg/kg, route oral
assayMetric: Tmax (h)

compound="COc1ncc(C2c3ccccc3C=NN2C(=O)/C=C/c2cc(Cc3cnc(N)nc3N)cc(OC)c2OC)cn1 (stereo not drawn)" readoutvalue=0.5
compound="COc1cc(Cc2cnc(N)nc2N)cc(/C=C/C(=O)N2N=Cc3ccccc3C2c2cnc(N(C)C)nc2)c1OC (stereo not drawn)" readoutvalue=2
compound="COc1cc(Cc2cnc(N)nc2N)cc(/C=C/C(=O)N2N=Cc3ccccc3C2c2cnc(N3CCOCC3)nc2)c1OC (stereo not drawn)" readoutvalue=6

----------
- System: Enterococcus faecalis
- protocolDescription: Antibacterial activity against Enterococcus faecalis in presence of 250 ug/ml thymidine
- Assay type: functional
assayMetric: MIC (µg/mL)

compound="COc1ncc(C2c3ccccc3C=NN2C(=O)/C=C/c2cc(Cc3cnc(N)nc3N)cc(OC)c2OC)cn1 (centres undefined)" targetundertest="Enterococcus faecalis" assaymetric=MIC boundoperator== readoutvalue=1
compound="COc1cc(Cc2cnc(N)nc2N)cc(/C=C/C(=O)N2N=Cc3ccccc3C2c2cnc(N3CCOCC3)nc2)c1OC (centres undefined)" targetundertest="Enterococcus faecalis" assaymetric=MIC boundoperator== readoutvalue=2
compound=COc1cc(Cc2cnc(N)nc2N)cc(OC)c1OC targetundertest="Enterococcus faecalis" assaymetric=MIC boundoperator=≥ readoutvalue=64
compound="COc1cc(Cc2cnc(N)nc2N)cc(/C=C/C(=O)N2N=Cc3ccccc3C2c2cnc(N(C)C)nc2)c1OC (centres undefined)" targetundertest="Enterococcus faecalis" assaymetric=MIC boundoperator== readoutvalue=1
